Recorded values, source patent US20250353911A1.

SUBJECT OF TEST: T1, Cynomolgus monkey serum albumin (CSA) (cynomolgus monkey, UniProt A2V9Z4 25-608)
T1 construct: Bought protein (Abcam); also called cynomolgus monkey albumin
ASSAY NAME: ELISA on coated cynomolgus monkey albumin, anti-human Fc HRP, A650, one site-total binding fit
REPORTED ENDPOINT: Bmax (A650)
Answers are plain numbers, in A650.

BINDER	UNITS TEXT	Bmax
4A01-NNT-hFc (Fc fusion, Monomeric sdAb-Fc fusion (Fc S364N, Y407N, K409T = NNT); also called 1m4A01; anti-albumin sdAb 4A01) QVQLQESGGGLVQPGGSLRLSCAASGFAFSTSGMVWVRQATGKGLEWVSTISDDSRIIRYADSVNGRFTISRDNAENTLYLLMNSLKPEDTAVYYCATYRAGSRIGSYEDYYRGQGTQVTVSSGGPSVFLFPPKPKDTLMISRTPEVTCVVVDVSHEDPEVKFNWYVDGVEVHNAKTKPREEQYNSTYRVVSVLTVLHQDWLNGKEYKCKVSNKALPAPIEKTISKAKGQPREPQVYTLPPSRDELTKNQVNLTCLVKGFYPSDIAVEWESNGQPENNYKTTPPVLDSDGSFFLNSTLTVDKSRWQQGNVFSCSVMHEALHNHYTQKSLSLSPG	A650	1.27

Field request: Bmax | item: 4A01v3-1 (Fc fusion, not shown: a dimerising Fc or GST; small tags and cut ends, also called Hz4A01v3-1) VHH: EVQLVESGGGEVQPGGSLRLSCAASGFTFSTSGMVWVRQAPGKGLEWVSTISDDARIIRYAESVKGRFTISRDNAKNTLYLQMNSLRAEDTAVYYCATYRAGSRIGSYEDYYRGQGTLVTVKP
1.29
